- Tested on: HT29 colon
- PROCEDURE_TEXT: NCI tumour cell line growth inhibition, 48 h
This listing pairs compounds with measured TGI.

Consider the reported TGI for these compounds:
CC(=O)OC1CCC2(C)C(=CCC3C2CCC2(C)C3CC3OC4(CCC(C)CN4)C(C)C32)C1 (stereo not drawn) = > 100 µM
Cc1nc2ccccc2c(/C=C/c2ccc(C(F)(F)F)cc2)c1C(=O)/C=C/c1ccccc1 = 6.05 µM
COc1cc(/C=C2\CC3C4CC=C5C[C@@H](N6CCCC6)CC[C@]5(C)C4CC[C@]3(C)[C@H]2OC(C)=O)ccc1OCCCn1ccnc1 (stereo partly drawn) = > 50 µM
CC(=O)O[C@H]1[C@@H](N2CCCCC2)C[C@H]2[C@@H]3CC=C4C[C@@H](N5CCCC5)CC[C@]4(C)[C@H]3CC[C@@]21C = > 100 µM
COc1ccc(C)cc1NC(=S)N/N=C/c1ccco1 = > 100 µM
COc1ccc(-c2c(C#N)c(N)nc(Sc3ccccc3N)c2C#N)cc1 = > 100 µM
CN(COC(=O)C(C)(C)C)c1nc(N(C)COC(=O)C(C)(C)C)nc(N(C)COC(=O)C(C)(C)C)n1 = > 100 µM

(Q) What TGI value was documented for this compound, COc1ccc(-n2c(C)nc3ccc(NC4OCC(OC(C)=O)C(OC(C)=O)C4OC(C)=O)cc3c2=O)cc1 (stereo not drawn) ?
(A) > 100 µM

Values compiled from PubChem BioAssay (NCI).
